# Test Name: PET hydrolysis, aromatic products released after 48 h (umol product/mg enzyme); higher = more PET depolymerization activity
# Condition Context: substrate: aFilm; 40 °C; pH 7.5
Readout Kind: PET hydrolysis

seq="MAAANPYQRGPDPTLASVAATNGPFATAQMTVPPGNGFNGGYIYYPTDTSLGTWGAVAIVPGYTALFKNEEAWMGPRLASFGFVVIGIETNSRTDFDTARGTQLLAALDYLTQKSAVRNRVDPGRLGVIGHSMGGGGALVAATQRPSLKAAVGLAPFKPSGNLANDRVPTMFIAGNRDTVVTPSYLDGLYGSLPAATKKAYVQINGADHLFATKPNTVEMRTLIPWLKIFLDNDTRYSQFLCPTLLDKTGVSMYRGTCPLI [TEP109]" readout_kind="PET hydrolysis" result="< 3"

// below: PET hydrolysis requested for another sequence
Task: Could you share which PET hydrolysis value was measured for STRNQEPTLQSIEAARGPYEIATQSVPPAVNTGFGGGTIYYPATTGAGKFGAVALSPGYMEKEYSFSWLGTRLASQGFVVFIINTQNSEEFPSARTDELLASLNYLTQTSEVRDRVDPNRLAVMGHSMGGGAALEAAEKNQSLRAVISMTPWNIKTTYSDIKTPTLIIGAQYDNIAPVHDHAQPSYASLPNDLAKSYLELRNGNHFSPNMENTAIARSSTVWLKRFVDGDTRYNKFICPGPTVGDEFNIVQSNCPIL [DP079] ?
Result: < 3

* * *

# Test Name: PET hydrolysis, aromatic products released after 48 h (umol product/mg enzyme); higher = more PET depolymerization activity
# Condition Context: substrate: aFilm; 40 °C; pH 6.5
Measured PET hydrolysis of individual entries

Would you please look over these solved cases?
seq="ADNPYQRGPAPTNTSIEATRGTYAVSTKTISALSARGFGGGTIYYPTSTADGTFGVVAISPGYTASQSTIAWLGPRLASFGFVVVTIDTTTRYDQPTSRGSQLLAALDQAIGDSTVGPRIDATRQAVVGHSMGGGGTLEAAKTRRSLEAAVPLTGWNLDKTWPEVEAATLVIGAQNDTVAPTTSHSIPFYNSLSGAERKAYLELRGASHFAPVTSNTTIAKHTLSWLKRYVDDDTRYEQFISPGPSTAIGSPVSDYRVN [DP022]" readout_kind="PET hydrolysis" result="< 3"
seq="AEAADNPYQRGPDPTLASVAATRGPFATAQATVPAGNGFNGGYVYYPTDTSLGTWGAVAIVPGYSALFADEEAWMGPWLASFGFVVLGIETNSRTDGADARATQLLAALDYLTQSSPVRHRVDANRLGVMGHSAGGAGTLMAALRRPSLKSAVGLAPGAPGNSLNMSTTQVPTMLISGQNDGTVTPSYVQGIYNTLPATVEHAWAELAGNDHLSFTRPNPTEMRILIPWLKIFLDNDTRYTQFLCPLADSTGVSRYSATCPLVPPGGPTAPPTVTPPPPTPTTPSPTTPPTSAACTATYRTVNSWSGGFQGEVTVTAGRAAINGWTVRWDLGNGQSISQVWNGTLSTSGSTATVRNVSYNGSLAPAASTGFGFLGTGAPAIPRLTCTSP [ESM037]" readout_kind="PET hydrolysis" result="< 3"

// below: PET hydrolysis requested for another sequence
Task: Could you share which PET hydrolysis value was measured for MAENPYERGPAPTTSSIEASRGSFATSTVTVSRLAVSGFGGGTIYYPTSTTAGTFGAISIAPGFTALQSSIAWLGPRLASQGFVVFTIDTLTTSDQPDSRGRQLLAALDYLTQQSSVRSRIDSSRLGVVGHSMGGGGTLEAARSRPSLQAAIPLTGWNLTKTWSTVRVPTLVVGAQADTVAPVASHSIPFYNSLPSSLDKAYLELRGASHFAPNSSNTTIAKYTLSWLKRFIDNDTRYEQFLCPIPSTSLSISDYRGNCPHNG [TEP182] ?
Result: < 3

* * *

# Test Name: PET hydrolysis, aromatic products released after 48 h (umol product/mg enzyme); higher = more PET depolymerization activity
# Condition Context: substrate: cryPow; 40 °C; pH 7.5
Readout Kind: PET hydrolysis
Provide a numeric answer; units are not to be included.

Task: Could you share which PET hydrolysis value was measured for ADNPYQRGPNPTAASIAATTGPFAIASVSVARGNGFGGGVIYYPTDTSQGTFGAIAISPGLNGTWPGIAWLGPRLASQGFVVFGIETNNLNDSPTSRGTQLLAALDYLTQRSSVRTRVDATRLAVAGHSMGGGGALDAALRRPSLQAAIGNAPYLPSGNLSTDRVPTLIYAMQNDTLVPPSRLTTMYNTIPATTERGYIQITGAGHNYIGQPSTNLARTMIPWFKIFIDNDTRFSQFLCPLSNMSGISQYRNSCPLI [ESM159] ?
Result: 74.5

* * *

# Test Name: purified protein yield per well (BCA); higher = higher soluble expression
Readout Kind: purified protein yield per well

Would you please look over these solved cases?
seq="GPGMEGNPYQRGPAPTTASIEAPTGAFAVSNASVPGGNGFGGGTLTYPTDTSQGTFGAVVVTPGFLSPEMKWYGPRLASQGFVVLTIATNTAVDQPGARAAQMLAALRYLVEQSPVKNRVDGSRLAVMGHSMGGGGSLEAAEAYPALKAAIPLEPWDLGKSFSAVRTPTLIVGGQSDWIAPVGQHAVPFYNSIPAGVNKAYIELAGGSHFVPMSPNVTIAKYSIAWLKRFVDNDTRYDQFLCPVPQAAALSVSKGTCPHT [TEP175]" result="< 25 µg"
seq="LKADGPYAVSSQTVKGNGFGAGTVYSPNTPGKYAVVAVCPGFVSAESSMTAISKRLATHGFVVVTIATNTLFDFPSSRATQLLAALKTVTALTTGPVAGKMDTSRQGVSGWSMGGGGTLEAAGATPGLVSAVAYAPWDTSTTKMKVNKVPVAIIGGSADTVASVSAHSQKFYDAIPATTPKMLPVINGADHFFPTKASEPASYHNI [ESM072]" result="< 25 µg"

// below: purified protein yield per well requested for another sequence
Task: Could you share which purified protein yield per well value was measured for ALNPYQRGPDPTDALLEAPRGPFATASTTVSRLSVSGFGGGVIYYPTDTSQGTFGGIAISPGYTASWSSLDWLGPRIASHGFVVIGIDTLSRYDQPASRGRQLLAALDYLTQRSSVRGRVDASRLAVAGHSMGGGGSLEAADSRPSLQAAVPLAPWHTTKNWSGVRVPTMIIGGESDSVAPVSTHSELFYASIPASSEKAYLELNGASHFFPNTTNTTMAKSMVSWLKRFVDDDVRYDPFLCPGPDGSAVEEYRQTCPLS [TEP140] ?
Result: 36.5 µg

* * *

Measured PET hydrolysis of individual entries
# Test Name: PET hydrolysis, aromatic products released after 48 h (umol product/mg enzyme); higher = more PET depolymerization activity
# Condition Context: substrate: aFilm; 60 °C; pH 8.5

Would you please look over these solved cases?
seq="ADNPYQRGPNPTQASIAANRGTFATAETSVGGGNGFGGAKIYYPTDTSQGTFGAIAVSPGYTATWAAEGAWMGHWLASFGFVVIGIDTINRNDREYARGTQLLAALDYLTQRSSVRTRVDPNRLAVMGHSMGGGGTISAALRRPTLKAAIGLAPYYPSQSTSGMQVPTMLLAGQNDGTSTPASIVTFYNDIPASTEKVYLELTGAGHGFPTSNNSVVTRKVIPWMKIFIDQDTRYTQFLCPLQDLTGIRTYRNSCPLLPNDPGTTFSLAGSASGKCADVPGRVQTNGTGLIIWTCNNAGNQQWTQTPAGELRIYGNTKCMDANASGQGARVTINTCNGGNSQKWTVNTNGTVTNAASGRCLDAGGTADNSPVVVNTCNAASGQTWTKRP [DP047]" result="< 3"
seq="GETAQTTDVSAQSQFQRGPNPTVSSIEARTGHYRTSTTRVSSFASGFGGGTIYYPTTTSDGTFGGVAVAPGYTASSSTMDWLGPRIASQGFVVFVIDTNTRLDQPSSRGRQLLAALDYLTERSSERHRVDSNRLAVMGHSMGGGGALEATISRPSLKASIPLTPWNLTKNWSRVTTPTLIVGAENDSVASVRSHSIPFYTSLSSSTDRMYVELDGASHFAPNVSNTTIAKYSISWLKRFVDDDTRYDQFLCPLPNERAISDIRGNCPR [DP090]" result="< 3"

Task: Could you share which PET hydrolysis value was measured for EEPASGYQRGPAPTTSSIESSRGPFSTSQVSISGLSANGFGGADVYYPTDTSQGTFGAVAISPGYTARKSSMAWLASRLASQGFVVINIDTNTTSDQPASRGRQLLAALDQVTKDSRVANRIDPTRLAVVGHSMGGGGALEASRSRPSLQAAIPLTPWNTTKSFSGNQVPTLVVGAERDTVASVRSHAEPFYRSLPSAPGKAYLELAGASHFAPNTSNTTIAKHSIAWLKLFVDNDERYRQFVCPGPTSDRAVSDYQNTCSSFTP [DP053] ?
Result: < 3

* * *

# Test Name: PET hydrolysis, aromatic products released after 48 h (umol product/mg enzyme); higher = more PET depolymerization activity
# Condition Context: substrate: cryPow; 40 °C; pH 7.5
Readout Kind: PET hydrolysis

seq="AAPAGPAALPARPLAAAPADSPYERGPAPTEASITAERGPFAIEKIDVPAGSGTGFNRGTIYAPTDTSQGTFGAIAVSPGFMSPQSVIDWYGPRLASQGFVVMTLETKSLLDAPAARGDQLLAALDYMTGKSKAKDRIDASRLAVMGHSMGGGGTLEAANKRASLQAAVPLAPWDTNYDWKNVQAPTMIMGADNDTIAPADSMAERYYGTLTAVPEKAYLELRNAGHTTFNAPNTTIAKYAIAWMKRFVDDDARYEQFLCPEPSPSTTIAQYEGTCPTG [TEP067]" readout_kind="PET hydrolysis" result="< 3"

Task: Could you share which PET hydrolysis value was measured for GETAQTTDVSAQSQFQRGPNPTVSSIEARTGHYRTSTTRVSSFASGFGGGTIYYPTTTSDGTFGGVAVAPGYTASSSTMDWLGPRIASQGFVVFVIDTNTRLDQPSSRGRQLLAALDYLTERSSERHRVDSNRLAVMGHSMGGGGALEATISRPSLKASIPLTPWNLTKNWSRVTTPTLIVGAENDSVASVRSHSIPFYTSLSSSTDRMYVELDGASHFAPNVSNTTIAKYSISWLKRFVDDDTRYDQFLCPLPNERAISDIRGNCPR [DP090] ?
Result: 12.5

Task: Could you share which PET hydrolysis value was measured for ASPYERGPNPTAASVSATTGPFAIASVSVARGNGFGGGVIYYPTATNQGTFGGIAISPGLNGTWAGIAWLGPRLASQGFVVFGIETNNLNDSPTSRGTQLLAALDYLTQRSTVRTRVDAGRLAVMGHSMGGGGALDAALRRPSLQAAIGNAPHLPSGTLSNDRVPTMIYAMQNDTLVPPSRLTTLYNSIPATTERGYILVTGAGHNYIGQPSTTLARTMIPWFKIFIDDDTRYSQFLCPMSNQSGISQYRNSCPLS [ESM160] ?
Result: 66.5
